Target: Aurora A kinase (Homo sapiens)
Sequence (O14965 1-403): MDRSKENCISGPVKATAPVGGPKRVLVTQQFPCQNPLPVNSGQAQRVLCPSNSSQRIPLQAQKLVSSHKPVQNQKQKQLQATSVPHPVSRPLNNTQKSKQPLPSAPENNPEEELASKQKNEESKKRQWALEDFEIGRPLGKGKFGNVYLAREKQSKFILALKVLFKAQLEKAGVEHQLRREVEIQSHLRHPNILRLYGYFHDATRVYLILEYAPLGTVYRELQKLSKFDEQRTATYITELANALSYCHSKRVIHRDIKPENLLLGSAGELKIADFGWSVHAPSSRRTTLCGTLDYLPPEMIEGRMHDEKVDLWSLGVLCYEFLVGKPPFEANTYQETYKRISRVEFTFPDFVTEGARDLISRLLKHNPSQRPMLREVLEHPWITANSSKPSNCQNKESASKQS
pIC50: −log10 of the molar value.
pIC50 values for the molecules below.
ATTRIBUTE MEASURED: pIC50

CN1CCC[C@H]1C(=O)Nc1ccc2c(c1)N/C(=C(/C(N)=O)c1nccc(C(F)(F)F)n1)N2 [Compound 77A]	8.10
NC(=O)/C(=C1\Nc2ccc(CN3CCNCC3)cc2S1)c1nccc(C(F)(F)F)n1 [Compound 94A]	8.15
NC(=O)/C(=C1\Nc2ccc(-c3cccnc3)cc2S1)c1nccc(C(F)(F)F)n1 [Compound 108A]	8.00
CC(C)(N)C(=O)Nc1ccc2c(c1)N/C(=C(/C(N)=O)c1nccc(C(F)(F)F)n1)N2 [Compound 81A]	8.22
NC(=O)/C(=C1\Nc2ccc(S(=O)(=O)NCCN3CCOCC3)cc2S1)c1nccc(C(F)(F)F)n1 [Compound 128A]	8.00
CN1CCC(C(=O)Nc2ccc3c(c2)N/C(=C(/C(N)=O)c2nccc(C(F)(F)F)n2)N3)CC1 [Compound 140A]	8.22
